# subject_of_test: human TAS1R2-I191V/TAS1R3-WT (Homo sapiens, UniProt Q7RTX0+Q8TE23, I191V)
# Construct: expressed in transfected cells; host or cells: HEK293T-Gα16gust44
# Sequence (Q8TE23 20-839 I191V): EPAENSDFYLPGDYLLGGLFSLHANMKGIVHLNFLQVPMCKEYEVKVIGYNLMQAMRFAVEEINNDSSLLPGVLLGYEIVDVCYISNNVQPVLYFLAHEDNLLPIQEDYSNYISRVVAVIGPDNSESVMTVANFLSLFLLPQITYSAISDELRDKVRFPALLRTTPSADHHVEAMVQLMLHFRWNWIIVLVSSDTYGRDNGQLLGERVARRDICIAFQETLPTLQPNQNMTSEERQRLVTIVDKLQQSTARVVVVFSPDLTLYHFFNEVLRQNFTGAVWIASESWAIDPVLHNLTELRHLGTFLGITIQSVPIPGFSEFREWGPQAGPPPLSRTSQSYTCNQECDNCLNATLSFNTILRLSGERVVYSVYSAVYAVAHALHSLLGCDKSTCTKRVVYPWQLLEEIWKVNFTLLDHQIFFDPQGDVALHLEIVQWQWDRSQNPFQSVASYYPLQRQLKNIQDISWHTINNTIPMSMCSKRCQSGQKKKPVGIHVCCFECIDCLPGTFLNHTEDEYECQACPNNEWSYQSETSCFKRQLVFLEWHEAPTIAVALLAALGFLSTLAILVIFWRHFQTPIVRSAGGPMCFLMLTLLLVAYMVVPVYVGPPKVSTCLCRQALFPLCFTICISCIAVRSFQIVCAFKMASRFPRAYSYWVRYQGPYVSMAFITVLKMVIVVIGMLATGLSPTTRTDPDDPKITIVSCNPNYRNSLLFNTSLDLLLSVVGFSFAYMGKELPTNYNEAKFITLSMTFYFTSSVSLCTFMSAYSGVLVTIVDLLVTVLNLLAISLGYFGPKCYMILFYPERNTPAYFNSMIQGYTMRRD
# Sequence (Q7RTX0 21-852): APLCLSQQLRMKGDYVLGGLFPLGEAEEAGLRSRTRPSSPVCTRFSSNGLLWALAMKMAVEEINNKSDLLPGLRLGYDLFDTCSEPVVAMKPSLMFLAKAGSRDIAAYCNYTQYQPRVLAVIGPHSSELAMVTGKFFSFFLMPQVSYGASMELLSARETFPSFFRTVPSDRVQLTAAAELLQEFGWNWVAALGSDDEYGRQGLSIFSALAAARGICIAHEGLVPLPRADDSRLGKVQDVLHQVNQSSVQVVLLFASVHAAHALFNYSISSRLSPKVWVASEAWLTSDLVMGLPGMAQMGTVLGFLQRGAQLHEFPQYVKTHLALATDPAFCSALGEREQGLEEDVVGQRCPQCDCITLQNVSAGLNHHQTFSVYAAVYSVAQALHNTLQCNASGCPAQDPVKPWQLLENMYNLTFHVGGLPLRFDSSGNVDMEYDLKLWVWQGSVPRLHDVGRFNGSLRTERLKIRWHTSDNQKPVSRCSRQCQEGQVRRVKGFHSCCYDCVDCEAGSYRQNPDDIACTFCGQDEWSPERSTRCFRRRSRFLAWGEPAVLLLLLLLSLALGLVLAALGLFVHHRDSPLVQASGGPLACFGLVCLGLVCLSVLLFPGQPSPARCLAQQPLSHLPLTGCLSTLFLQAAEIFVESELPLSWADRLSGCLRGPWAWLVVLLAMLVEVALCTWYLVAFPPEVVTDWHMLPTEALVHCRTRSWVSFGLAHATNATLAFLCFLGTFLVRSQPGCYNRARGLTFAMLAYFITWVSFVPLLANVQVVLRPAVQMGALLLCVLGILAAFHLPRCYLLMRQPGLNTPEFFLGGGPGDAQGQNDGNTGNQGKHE
# procedure_details: Calcium mobilisation assay, TAS1R2 variant I191V with TAS1R3-WT
# Format: cell-based
# recorded_conditions: maximal signal amplitude
# Source text: The coding sequences for TAS1R2 and TAS1R3 were commercially synthesised, and the human codon was optimised for expression in human cells. […] The HEK293T cells were kindly provided by Jay P. Slack (Givaudan Flavors Corporation; Cincinnati, OH, USA). […] The Ca^2+ changes were expressed as fractional changes in fluorescent light intensity: ΔF/F = (F − F0)/F0, where F was the fluorescent light intensity at each point, and F0 was the value of emitted fluorescent light prior to stimulus application. […]
endpoint_label: Max ΔF/F0

// COc1ccc(CCC(=O)c2c(O)cc(O[C@@H]3O[C@H](CO)[C@@H](O)[C@H](O)[C@H]3O[C@@H]3O[C@@H](C)[C@H](O)[C@@H](O)[C@H]3O)cc2O)cc1O [NHDC, neohesperidin dihydrochalcone] : Max ΔF/F0 value = 0.73

a. C=C(C)[C@@H]1CC=C(/C=N/O)CC1
b. COC(=O)[C@H](Cc1ccccc1)NC(=O)[C@H](CC(=O)O)NCCC(C)(C)C
c. CC1=CC(=O)NS(=O)(=O)O1
Problem: Please list the entries, largest Max ΔF/F0 first. Provide the labels, sequenced as the question asks.
Solution: a, b, c

Hello, the source for this data is paper PMC11945486, in case you need it.
